Test system: PPARg:RXRa 270nM:90nM, anti-RXR (NR concentration 270 nM, RXRa partner concentration 90 nM)
MEASUREMENT NOTES: PBM binding z-score (relative to random genomic background probes); higher = stronger binding; sequences stand for … in GC…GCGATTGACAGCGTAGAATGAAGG
Reported PBM binding z-score values are given for each entry in this list.
# answer = number (no unit)

primary_sequence=CCTCGGAGGACAGAAGGTCAGATCTGTCCGCTTT assay_result=0.812
primary_sequence=CGTCCAAGGTCAAGGTGAGTGAAAGAGACTCGAA assay_result=5.61
primary_sequence=CGAACTAGGTCAAAGGACCGTGAAAGGCGACGTA assay_result=6.9
primary_sequence=TGAATGAAGTTAAAGATCAGGGAACGTGGCGTCG assay_result=1.61
primary_sequence=CTATGTAGGTTAAGGGGATCATTCAGTTTGAAAG assay_result=5.5
primary_sequence=TTGAGTAGGTTACGGGGGCATTCAGGGATGAAGA assay_result=6.44
primary_sequence=CAAACTAGGTCAAGGGGTCAAAGTCCGCTTCCCG assay_result=8.96
primary_sequence=CGAACTAGGTCAAAGGATAGTGAAAGGCGACGTA assay_result=7.71

Measured PBM binding z-score, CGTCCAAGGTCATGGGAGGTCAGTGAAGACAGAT : 6.11

Measured PBM binding z-score, CGAACTAGGTCACCAGGACAGTGAAGAGGTTGGA : 7

Measured PBM binding z-score, GATACAGGGTCAGCTTGAGGCCAGAGTATGGAAA : 2.81

Measured PBM binding z-score, CGTCCAAGGTCATAGGAGGTCATTGAAGACAGAT : 5.98

* * *

Tested on: RXRa DBDmut IVT, anti-RXR (DBD mutation: RXRa K156A/R161A, NR concentration 90 nM)
MEASUREMENT NOTES: PBM binding z-score (relative to random genomic background probes); higher = stronger binding; sequences stand for … in GC…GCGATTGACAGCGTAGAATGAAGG
RECORDED METRIC: PBM binding z-score
# answer = number (no unit)

Measured PBM binding z-score, CAAACTAGGTCACCGTAAGGTCAAAGTCCGCATG : 2.47

Measured PBM binding z-score, CTATGTAGGTTAAAGGGGTCATTCAGTTTGAAAG : 2.87

Measured PBM binding z-score, TAGCCTAGGTCAAGCGGGCCAGTATAGTGTCGGC : 0.428

Measured PBM binding z-score, CGAACTAGGTCACCAGGACAGTGACGAGGTTGGA : 1.22

Measured PBM binding z-score, ATCTCTAGGTAAAGTTCATTGAAAGATCGATAGA : 2.96

* * *

Test system: THRa homodimer (NR concentration 90 nM)
MEASUREMENT NOTES: PBM binding z-score (relative to random genomic background probes); higher = stronger binding; sequences stand for … in GC…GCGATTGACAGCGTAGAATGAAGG
Reported PBM binding z-score values are given for each entry in this list.
# answer = number (no unit)

Take a look at these entries with their results.
primary_sequence=AGTCAAAGGTCACTAGGTAACGTAAGATTCAGCT assay_result=0.996
primary_sequence=CCGAGTAGGTTACGTGGGGGCATTCAGTGCGAAT assay_result=1.09
primary_sequence=TCGAGTAGGTTCCGGGGGCATTCAGGGATGAAGA assay_result=1.08

Measured PBM binding z-score, CGAACTAGGCCAAAGGACAGTGAAAGGCGACGTA : -0.915

Measured PBM binding z-score, AAATGTAGGTTAGGGTCATTCAGAAAGTAGGGAA : 3.35

Measured PBM binding z-score, ACTCGGAGGACAAAGGTAAGAGCTACGCCAGTGA : -0.169

Measured PBM binding z-score, CCCGCTAGGTCATGGTCAGCTAATCTACAGTATG : 1.91

Measured PBM binding z-score, ATATGTAGGTTAGCGTCATTCAGAAAGTAGGGAA : -0.253

Measured PBM binding z-score, TCGAGTAGGTTACGGGGGCATTCATGGATGAAGA : 1.13

Measured PBM binding z-score, CAAACTAGGTCACAGAGGTTAAAGTCCGTGCGTA : 2.1

Measured PBM binding z-score, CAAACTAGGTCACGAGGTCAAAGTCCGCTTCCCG : 4.67

Measured PBM binding z-score, CGTCCAAGGTCAGAGAGGTCAGTGACTGCCGAGT : 2.58

Measured PBM binding z-score, CAAAGTAGGTCACCGGAAGGTCAAAGTCCGCATG : 2.03

Measured PBM binding z-score, ATATGTAGGTTAAGGGTCATGCAGGTTGGTTCGC : 1.93

Measured PBM binding z-score, CGTCCAAGGTCAACAGGTCAGTGAAAGCGACGTG : 2.98

Measured PBM binding z-score, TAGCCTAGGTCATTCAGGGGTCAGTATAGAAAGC : 2.13

Measured PBM binding z-score, CGTCAAAGTTCAACTAAGGTAACGTATAGCACGC : 1.89

Measured PBM binding z-score, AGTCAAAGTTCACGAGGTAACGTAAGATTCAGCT : 1.34

Measured PBM binding z-score, AGATTGAGGTTACCAAAGATCAGGGAAACGCTTG : 1

Measured PBM binding z-score, CCTACTGGGCCACGAAAGGTAATTGATTCAGTGA : -0.00813

* * *

System: RARa homodimer (NR concentration 270 nM)
MEASUREMENT NOTES: PBM binding z-score (relative to random genomic background probes); higher = stronger binding; sequences stand for … in GC…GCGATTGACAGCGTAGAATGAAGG
Label rule, in plain words: PBM binding z-score of 0.8 and up is Met, under 0.8 is Not met.

Worked examples, 4 sequences total:
primary_sequence=ATATGTAGGTCAGCTGGGGTCATTCAGACTAGGC label_class=Met
primary_sequence=CTAACTAGGTCACCGGAAGGTCAAAGTCCGCATG label_class=Met
primary_sequence=CCGACTTGGGCAAAGGTTACCATACTCAGTACGA label_class="Not met"
primary_sequence=CGTCCAAGGGCAATGCTAGGTCAGTGAAAGCATT label_class="Not met"

For this sequence, is measured PBM binding z-score 0.8 or higher? CCGAGTAGGTTACCAGGGGGCATTCAGTGCGAAT
Not met

For this sequence, is measured PBM binding z-score 0.8 or higher? CGTCCAAGGTCAGAGAGGTCATTGAATGCCGAGT
Met

* * *

Tested on: RXRa DBDmut IVT, anti-RXR (DBD mutation: RXRa K156A/R161A, NR concentration 90 nM)
MEASUREMENT NOTES: PBM binding z-score (relative to random genomic background probes); higher = stronger binding; sequences stand for … in GC…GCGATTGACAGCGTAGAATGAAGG
Field: class. Source value: PBM binding z-score. Ranges: low = under 0.9, intermediate = from 0.9 up to 2, high = 2 and over

Worked examples, 5 sequences total:
primary_sequence=CGTACTAGGTCAAAGGACAGTGAAAGGCGACGTA label_class=intermediate
primary_sequence=TCGAGTAGGTTAAGGGGGCATTCAGGGATGAAGA label_class=intermediate
primary_sequence=AGTCAAAGTTCATCTGGGTAACGTAAGATATGCT label_class=high
primary_sequence=GATACAGGGTCAAGGCCAGAATACGCGTATTGAT label_class=high
primary_sequence=CATACTAGGTCAAAGGTCAAAGTCGAGCCAACCA label_class=high

Category lookup for the sequence CCTACTGGGCCAAAAATGTCATTGATGCCGATAA
low

Category lookup for the sequence TAGCCTAGCTCATTCAGGGGCCAGTATAGAAAGC
low

* * *

System: PXR homodimer (NR concentration 270 nM)
MEASUREMENT NOTES: PBM binding z-score (relative to random genomic background probes); higher = stronger binding; sequences stand for … in GC…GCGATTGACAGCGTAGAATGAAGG
RECORDED METRIC: PBM binding z-score
# answer = number (no unit)

primary_sequence=GATACAGAGTCAGCTAGAGGCCAGAGTATGGAAA tested_on="PXR homodimer (NR concentration 270 nM)" recorded_metric="PBM binding z-score" assay_result=-0.489
primary_sequence=CTAAGTAGGTTAAGGGGGTCATTCAGTTTGAAAG tested_on="PXR homodimer (NR concentration 270 nM)" recorded_metric="PBM binding z-score" assay_result=11.4
primary_sequence=CCTTACGGGTCAAGGTTGTAGCACGGGTGGTACG tested_on="PXR homodimer (NR concentration 270 nM)" recorded_metric="PBM binding z-score" assay_result=-0.423
primary_sequence=CGTCCAAGGTCAAAGGTCAGCGAAGAGATGACGG tested_on="PXR homodimer (NR concentration 270 nM)" recorded_metric="PBM binding z-score" assay_result=1.93
primary_sequence=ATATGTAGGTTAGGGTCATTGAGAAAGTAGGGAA tested_on="PXR homodimer (NR concentration 270 nM)" recorded_metric="PBM binding z-score" assay_result=1.72

Measured PBM binding z-score, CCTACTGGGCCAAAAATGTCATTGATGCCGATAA : -0.24

Measured PBM binding z-score, GTACCAAGGTGAATAGGTCGTTGATGAGTAGGCG : -0.224

Measured PBM binding z-score, CGTCAAAGTTCTAGGTAACGTAACAGAAAGCAGC : -0.093

Measured PBM binding z-score, CTCGAAAGGTCGTCCTCAGGTGAGTATACCAAAC : 0.134

Measured PBM binding z-score, AGTCAAAGTTCAGTAGGTAACGTAAGATTCAGCT : 1.37

Measured PBM binding z-score, AGTCAAAGTTCAGGACGAGATAACGTAAAGCACG : 0.795

Measured PBM binding z-score, CAAACTAGGTCACGAAAGGTCAACGTCGAATGAC : 2.65
